assay: Lipophilicity via RP-HPLC; assay type: physicochemical; settings: C18 column
# if value of ϕ0 reaches 0.6, tag TRUE; if it stays below, tag FALSE

compound="O=C(O)c1ccc(O)c(O)c1 [3,4-DHB, 3,4-dihydroxybenzoic acid]" answer_label=FALSE
compound="O=C(O)c1cc(O)cc(O)c1 [3,5-DHB, 3,5-dihydroxybenzoic acid]" answer_label=FALSE
compound="O=C(O)c1c(O)cccc1O [2,6-DHB, 2,6-dihydroxybenzoic acid]" answer_label=TRUE
compound="O=C(O)c1cc(O)c(O)c(O)c1 [3,4,5-THB, 3,4,5-trihydroxybenzoic acid]" answer_label=FALSE
compound="O=C(O)c1ccc(O)cc1O [2,4-DHB, 2,4-Dihydroxybenzoic acid]" answer_label=FALSE

---

Listed compounds paired with reported log kw
experiment: Lipophilicity via RP-HPLC; type: physicochemical; details: C8 column
metric_name: log kw

compound="O=C(O)c1cc(O)c(O)c(O)c1 [3,4,5-THB, 3,4,5-trihydroxybenzoic acid]" metric_name="log kw" endpoint_value=0.50
compound="O=C(O)c1cc(O)cc(O)c1 [3,5-DHB, 3,5-dihydroxybenzoic acid]" metric_name="log kw" endpoint_value=0.90
compound="O=C(O)c1c(O)cccc1O [2,6-DHB, 2,6-dihydroxybenzoic acid]" metric_name="log kw" endpoint_value=1.17
compound="O=C(O)c1ccc(O)c(O)c1 [3,4-DHB, 3,4-dihydroxybenzoic acid]" metric_name="log kw" endpoint_value=1.00
compound="O=C(O)c1ccc(O)cc1O [2,4-DHB, 2,4-Dihydroxybenzoic acid]" metric_name="log kw" endpoint_value=1.81
compound="O=C(O)c1cccc(O)c1O [2,3-DHB, 2,3-Dihydroxybenzoic acid]" metric_name="log kw" endpoint_value=1.70

---

assay: Lipophilicity via RP-HPLC; format: physicochemical; conditions: CN column
metric_name: log kw

molecule="O=C(O)c1cccc(O)c1O [2,3-DHB, 2,3-Dihydroxybenzoic acid]" endpoint_value=1.59
molecule="O=C(O)c1cc(O)cc(O)c1 [3,5-DHB, 3,5-dihydroxybenzoic acid]" endpoint_value=1.78
molecule="O=C(O)c1cc(O)c(O)c(O)c1 [3,4,5-THB, 3,4,5-trihydroxybenzoic acid]" endpoint_value=1.24
molecule="O=C(O)c1ccc(O)cc1O [2,4-DHB, 2,4-Dihydroxybenzoic acid]" endpoint_value=2.06
molecule="O=C(O)c1ccc(O)c(O)c1 [3,4-DHB, 3,4-dihydroxybenzoic acid]" endpoint_value=1.58
molecule="O=C(O)c1c(O)cccc1O [2,6-DHB, 2,6-dihydroxybenzoic acid]" endpoint_value=1.49

---

Test: Cytotoxicity, neutral red (NR) assay
Assay type: cell-based, human
Settings: human, MCF-7 cells (breast adenocarcinoma); 48 h treatment, neutral red assay; read-out: Cytotoxicity (mM) in Cell Line MCF-7, IC50
Method: Briefly, MCF-7 cells were cultured in EMEM (Biological Industries, Israel) medium supplemented with 10% fetal calf serum (Gibco). […] Cytotoxicity evaluation was conducted to assess the impact of hydroxybenzoic acids on the proliferation of MCF-7 and MDA-MB-231 cells, which was measured via neutral red (NR) assay. […] After 15 min of gentle shaking, optical density was read at 540 nm with an Infinite M200 plate reader spectrophotometer (Tecan, Austria).
Entries and their measured IC50 at 48 h follow.
metric_name: IC50 at 48 h

compound="O=C(O)c1cc(O)cc(O)c1 [3,5-DHB, 3,5-dihydroxybenzoic acid]" endpoint_value="> 5 mM"
compound="O=C(O)c1c(O)cccc1O [2,6-DHB, 2,6-dihydroxybenzoic acid]" endpoint_value="> 5 mM"
compound="O=C(O)c1cc(O)ccc1O [2,5-DHB, 2,5-dihydroxybenzoic acid]" endpoint_value="> 5 mM"
compound="O=C(O)c1cccc(O)c1O [2,3-DHB, 2,3-Dihydroxybenzoic acid]" endpoint_value="> 5 mM"
